experiment: Drug uptake in iv dosed BALB/c athymic nude mouse muscle xenografted with human LNCaP cells treated with 68Ga-labeled compound measured after 1 hr by microPET imaging analysis; type: ADME, organism-based; settings: in vivo
quantity: SUV

A. O=C(O)CC[C@H](NC(=O)N[C@@H](CCCCNC(=O)[C@H]1CC[C@H](CNC(=O)[C@H](Cc2ccc3ccccc3c2)NC(=O)CN2CCN(CC(=O)O)CCN(CC(=O)O)CCN(CC(=O)O)CC2)CC1)C(=O)O)C(=O)O
B. O=C(O)CC[C@H](NC(=O)N[C@@H](CCCCNC(=O)[C@H](Cc1ccc2ccccc2c1)NC(=O)CN1CCN(CC(=O)O)CCN(CC(=O)O)CCN(CC(=O)O)CC1)C(=O)O)C(=O)O
# input For A and B , which recorded SUV is lower? State your choice using its label.
# output A
(A: 0.11, B: 0.2)

a. O=C(O)CC[C@H](NC(=O)N[C@@H](CCCCNC(=O)c1ccc(CNC(=O)CN2CCN(CC(=O)O)CCN(CC(=O)O)CCN(CC(=O)O)CC2)cc1)C(=O)O)C(=O)O
b. O=C(O)CC[C@H](NC(=O)N[C@@H](CCCCNC(=O)c1ccc(CNC(=O)c2ccc(CNC(=O)c3ccc(CNC(=O)c4ccc(CNC(=O)CN5CCN(CC(=O)O)CCN(CC(=O)O)CCN(CC(=O)O)CC5)cc4)cc3)cc2)cc1)C(=O)O)C(=O)O
# input When the recorded SUV values are compared, which is smaller: that of a or that of b ? Indicate your choice by writing its label.
# output a
(a: 0.13, b: 0.25)

A. O=C(O)CC[C@H](NC(=O)N[C@@H](CCCCNC(=O)c1ccc(CNC(=O)c2ccc(CNC(=O)CN3CCN(CC(=O)O)CCN(CC(=O)O)CCN(CC(=O)O)CC3)cc2)cc1)C(=O)O)C(=O)O
B. O=C(O)CC[C@H](NC(=O)N[C@@H](CCCCNC(=O)[C@H]1CC[C@H](CNC(=O)[C@H]2CC[C@H](CNC(=O)[C@H]3CC[C@H](CNC(=O)CN4CCN(CC(=O)O)CCN(CC(=O)O)CCN(CC(=O)O)CC4)CC3)CC2)CC1)C(=O)O)C(=O)O
# input Of A and B , whose reported SUV is numerically smaller? Your answer should be the label attached to the chosen record.
# output A
(A: 0.1, B: 0.21)
